Where do these numbers come from? They come from patent US11919902B2.

# target or system: GST tagged PIP4KtypeIIA (Homo sapiens)
# Sequence (P48426 whole entry): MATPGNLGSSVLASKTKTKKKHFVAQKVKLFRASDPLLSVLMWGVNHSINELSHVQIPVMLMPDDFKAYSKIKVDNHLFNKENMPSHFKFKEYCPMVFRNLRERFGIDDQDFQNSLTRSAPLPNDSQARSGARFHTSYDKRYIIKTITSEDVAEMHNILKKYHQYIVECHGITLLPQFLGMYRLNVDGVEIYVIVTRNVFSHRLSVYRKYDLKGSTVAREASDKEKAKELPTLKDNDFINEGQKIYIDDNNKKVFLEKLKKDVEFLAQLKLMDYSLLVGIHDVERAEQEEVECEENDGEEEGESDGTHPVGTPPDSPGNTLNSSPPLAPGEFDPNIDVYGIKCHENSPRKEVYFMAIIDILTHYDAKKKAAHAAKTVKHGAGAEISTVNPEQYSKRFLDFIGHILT
pIC50: −log10 of the molar value.
quantity: pIC50

Qu. Give the measured pIC50 of `CN(C)C(=O)c1cnc2ccn(-c3cncc(-c4ccc(N5CCCC5=O)cc4)c3)c2c1` .
Ans. 6.00 to 7.00

Qu. Give its pIC50 value. Item: `CN(C)C(=O)c1ccc(-c2cc(-c3ccnc4[nH]c(C(=O)NC5CCOCC5)cc34)cnc2N)nc1`
Ans. 6.00 to 7.00

Qu. Please look up its pIC50: `Cn1ccc(-c2cncc(-c3ccc(N4CCCC4=O)cc3)c2)cc1=O`
Ans. < 5.30

Qu. What value of pIC50 has been reported for the following molecule? `CN(C)C(=O)c1ccc(-c2cc(-c3ccnc4[nH]c(C(N)=O)cc34)cnc2N)nc1`
Ans. 6.00 to 7.00

Qu. What measured pIC50 goes with `O=C1NCc2c(-c3cncc(-c4ccc(N5CCCC5=O)cc4)c3)ccnc21` ?
Ans. 6.00 to 7.00

Qu. Param item = `Cn1cc(-c2cncnc2)c2cc(-c3cncc(-c4ccc(N5CCCC5=O)cc4)c3)cnc21` ; retrieve measured pIC50.
Ans. 6.00 to 7.00
